# Ratio kcat/Km (i20S/c20S) values compiled below
Biological target: human immunoproteasome core particle (i20S) (Homo sapiens, UniProt P20618+P28062)
Construct: purchased Boston Biochem E-370
Assay: Purified proteasome activity assay with fluorogenic substrates, SDS-activated i20S
Assay type: biochemical
Details: i20S/c20S
Method: Non-prime-side substrate specificity profiling was performed with a complete, diverse library of 160,000 fluorogenic substrates containing the general structure acetyl-P4-P3-P2-P1-(7-amino-4-carbamoylmethylcourmarin, ACC) ([Harris et al., 2000]). […] Activity was recorded in black 96-well round bottom plates (Costar, COrning, NY) using a BioTek Synergy H4 Hybrid Multi-Mode Microplate Reader set to λex = 380 nm and λem = 460 nm (gain = 63). […]
Where a SMILES comes first, the peptide text is derived from it. The star is where a group is joined. ACC = NC(=O)Cc1cc(=O)oc2cc(N*)ccc12; AMC = Cc1cc(=O)oc2cc(N*)ccc12

See these solved cases before continuing.
{"columns": ["molecule", "Ratio kcat/Km (i20S/c20S)"],
 "data": [
  ["NC(=O)Cc1cc(=O)oc2cc(NC(=O)[C@H](Cc3c[nH]c4ccccc34)NC(=O)[C@H](Cc3ccccc3)NC(=O)[C@H](Cc3c[nH]c4ccccc34)NC(=O)[C@@H](N)CCC(=O)O)ccc12 [EWFW-ACC] (H-EWFW-{ACC})", 4.0],
  ["CC(=O)N[C@@H](C)C(=O)N[C@@H](CC(N)=O)C(=O)N[C@@H](Cc1c[nH]c2ccccc12)C(=O)Nc1ccc2c(C)cc(=O)oc2c1 [Ac-ANW-AMC] (Ac-Ala-Asn-Trp-{AMC})", 6.0],
  ["Cc1cc(C(=O)N[C@H](C(=O)N[C@@H](CCC(N)=O)C(=O)N[C@@H](C)C(=O)Nc2ccc3c(CC(N)=O)cc(=O)oc3c2)C(C)C)no1", 0.33]
]}

Turning now to a further molecule:
Exam item: For the molecule NC(=O)Cc1cc(=O)oc2cc(NC(=O)[C@H](Cc3c[nH]c4ccccc34)NC(=O)[C@H](Cc3c[nH]cn3)NC(=O)[C@H](Cc3c[nH]c4ccccc34)NC(=O)[C@@H](N)CCC(=O)O)ccc12 [EWHW-ACC] (H-EWHW-{ACC}) , report Ratio kcat/Km (i20S/c20S).
Marked response: 8.4
